Listing: pKd of selected binders
Target: EBOV GP[change] (Ebola virus) (UniProt Q05320)
Sequence (Q05320 33-501, chain 1 of 2): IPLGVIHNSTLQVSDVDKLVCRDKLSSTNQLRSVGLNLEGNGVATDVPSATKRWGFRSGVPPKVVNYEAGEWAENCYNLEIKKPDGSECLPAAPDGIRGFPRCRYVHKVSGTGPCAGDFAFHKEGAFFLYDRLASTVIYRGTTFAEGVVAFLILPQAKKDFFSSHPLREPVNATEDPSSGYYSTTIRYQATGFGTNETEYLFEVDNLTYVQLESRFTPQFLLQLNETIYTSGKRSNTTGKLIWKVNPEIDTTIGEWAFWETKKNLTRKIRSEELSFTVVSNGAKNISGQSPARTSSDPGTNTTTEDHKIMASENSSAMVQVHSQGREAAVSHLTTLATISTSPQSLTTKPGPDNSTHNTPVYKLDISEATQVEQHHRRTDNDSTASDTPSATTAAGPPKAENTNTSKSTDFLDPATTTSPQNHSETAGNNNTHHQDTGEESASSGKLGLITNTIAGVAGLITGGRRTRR
Sequence (Q05320 502-650, chain 2 of 2): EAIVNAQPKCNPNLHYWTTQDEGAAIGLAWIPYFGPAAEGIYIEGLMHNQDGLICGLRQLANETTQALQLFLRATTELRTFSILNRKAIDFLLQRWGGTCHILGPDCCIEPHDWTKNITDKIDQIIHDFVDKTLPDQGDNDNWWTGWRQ
pKd here: minus log base 10 of the concentration, concentration in moles per litre.

[
  {
    "Binder": "PE-87 R101A (antibody, V domains shown) VH: QVQLVQSGVTLVQPGGSLRVSCAASGFTFSSYAMSWVRQAPGKGLEWVSAISGLGGSTYYADSVKGRFTISRDNSKNTLYLQMNSLRAEDTAVYYCAKDHAVWAAGYHFDYWGQGALVTVSS VL: DIVLTQSPSTLSASVGDRVTITCRASQSISSWLAWYQQKPGEAPKLLISDASSLESGVPSRFSGSGSGTEFTLTISSLQPDDFATYYCQQYYSSPTFGGGTKVEIK",
    "Test result": 8.03
  }
]

Could you now consider this next binder?
query: For PE-87 V102A (antibody, V domains shown) VH: QVQLVQSGVTLVQPGGSLRVSCAASGFTFSSYAMSWVRQAPGKGLEWVSAISGLGGSTYYADSVKGRFTISRDNSKNTLYLQMNSLRAEDTAVYYCAKDHRAWAAGYHFDYWGQGALVTVSS VL: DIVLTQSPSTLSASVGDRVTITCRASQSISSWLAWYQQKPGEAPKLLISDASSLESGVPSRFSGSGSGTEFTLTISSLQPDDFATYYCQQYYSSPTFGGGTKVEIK , what is its reported pKd?
result: 8.40
